Test: Solubility experiments (approximate solubility by solvent aliquot addition)
Assay type: physicochemical
Conditions: organic solvent or mixture, thermodynamic from solid; Solvent: Methyl ethyl ketone (MEK); ca. 50° C.; read-out: Solubility (mg/mL) (ca. 50° C.)
measurement-name: solubility (mg/mL)
# output: bare number, implied unit mg/mL

Sample O=C(O)CNC(=O)c1ncc(-c2cccc(Cl)c2)cc1O [Form A of Compound (I)] — what was its solubility?
100

###

Assay: Solubility experiments (approximate solubility by solvent aliquot addition)
Format: physicochemical
Details: organic solvent or mixture, thermodynamic from solid; Solvent: Acetone; ca. 50° C.; read-out: Solubility (mg/mL) (ca. 50° C.)
measurement-name: solubility

Sample O=C(O)CNC(=O)c1ncc(-c2cccc(Cl)c2)cc1O [Form A of Compound (I)] — what was its solubility?
> 100 mg/mL

###

Experiment: Solubility experiments (approximate solubility by solvent aliquot addition)
Format: physicochemical
Conditions: organic solvent or mixture, thermodynamic from solid; Solvent: 2-Methoxyethanol; RT (ca. 22° C.); read-out: Solubility (mg/mL) RT (ca. 22° C.)
measurement-name: solubility

Sample O=C(O)CNC(=O)c1ncc(-c2cccc(Cl)c2)cc1O [Form A of Compound (I)] — what was its solubility?
> 200 mg/mL

###

Experiment: Solubility experiments (approximate solubility by solvent aliquot addition)
Assay type: physicochemical
Details: organic solvent or mixture, thermodynamic from solid; Solvent: Cyclohexane; RT (ca. 22° C.); read-out: Solubility (mg/mL) RT (ca. 22° C.)
measurement-name: solubility

Sample O=C(O)CNC(=O)c1ncc(-c2cccc(Cl)c2)cc1O [Form A of Compound (I)] — what was its solubility?
< 10 mg/mL

###

Test: Solubility experiments (approximate solubility by solvent aliquot addition)
Type: physicochemical
Conditions: organic solvent or mixture, thermodynamic from solid; Solvent: Ethylene glycol; ca. 50° C.; read-out: Solubility (mg/mL) (ca. 50° C.)
measurement-name: solubility

Sample O=C(O)CNC(=O)c1ncc(-c2cccc(Cl)c2)cc1O [Form A of Compound (I)] — what was its solubility?
< 10 mg/mL

###

Assay: Solubility experiments (approximate solubility by solvent aliquot addition)
Assay type: physicochemical
Details: organic solvent or mixture, thermodynamic from solid; Solvent: Cyclohexanone; RT (ca. 22° C.); read-out: Solubility (mg/mL) RT (ca. 22° C.)
measurement-name: solubility

Sample O=C(O)CNC(=O)c1ncc(-c2cccc(Cl)c2)cc1O [Form A of Compound (I)] — what was its solubility?
< 200 mg/mL

###

Experiment: Solubility experiments (approximate solubility by solvent aliquot addition)
Format: physicochemical
Details: organic solvent or mixture, thermodynamic from solid; Solvent: Heptane; RT (ca. 22° C.); read-out: Solubility (mg/mL) RT (ca. 22° C.)
measurement-name: solubility

Sample O=C(O)CNC(=O)c1ncc(-c2cccc(Cl)c2)cc1O [Form A of Compound (I)] — what was its solubility?
< 10 mg/mL

###

Assay: Solubility experiments (approximate solubility by solvent aliquot addition)
Type: physicochemical
Settings: organic solvent or mixture, thermodynamic from solid; Solvent: Dimethyl sulfoxide (DMSO); ca. 50° C.; read-out: Solubility (mg/mL) (ca. 50° C.)
measurement-name: solubility

Sample O=C(O)CNC(=O)c1ncc(-c2cccc(Cl)c2)cc1O [Form A of Compound (I)] — what was its solubility?
> 200 mg/mL

###

Test: Solubility experiments (approximate solubility by solvent aliquot addition)
Format: physicochemical
Settings: organic solvent or mixture, thermodynamic from solid; Solvent: Acetone/Water (3%); ca. 50° C.; read-out: Solubility (mg/mL) (ca. 50° C.)
measurement-name: solubility (mg/mL)
# output: bare number, implied unit mg/mL

Sample O=C(O)CNC(=O)c1ncc(-c2cccc(Cl)c2)cc1O [Form A of Compound (I)] — what was its solubility?
200
